tgt: T1, CRF2R
T1 sequence (Q13324 whole entry, species assumed, looked up): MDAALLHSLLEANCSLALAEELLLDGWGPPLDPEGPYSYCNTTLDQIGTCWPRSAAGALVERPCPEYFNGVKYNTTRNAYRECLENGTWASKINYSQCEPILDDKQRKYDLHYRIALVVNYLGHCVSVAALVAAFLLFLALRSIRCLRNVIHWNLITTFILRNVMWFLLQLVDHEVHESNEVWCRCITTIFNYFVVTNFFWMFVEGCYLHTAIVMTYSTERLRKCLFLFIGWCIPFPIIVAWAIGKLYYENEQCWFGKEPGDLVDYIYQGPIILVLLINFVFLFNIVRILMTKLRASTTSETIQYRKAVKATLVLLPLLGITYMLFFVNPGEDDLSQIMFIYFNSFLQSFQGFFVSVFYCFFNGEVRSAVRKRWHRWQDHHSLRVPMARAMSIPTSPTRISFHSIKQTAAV
assay.info: cell-based or functional assay
# reported CRF2R EC50; entries follow
Number only, in nM; omit the unit.

{"binder": "ZGPPISIDLPLILLRKMIEIEKQEKEKQQAANNRLLLDTI (C-terminal amide) [SEQ ID NO 194]", "CRF2R EC50 [nM]": 5}

We now examine a further binder.
For ZGPPISIDLPQILLRKMIEIEKQEKEKQQAANNRLLLDTI (C-terminal amide) [SEQ ID NO 199] the binder record lists CRF2R EC50 as 8.5
